Molecular target: human muscarinic M1 receptors (Homo sapiens)
Construct: host or cells: A9L cells
Sequence (P11229 whole entry): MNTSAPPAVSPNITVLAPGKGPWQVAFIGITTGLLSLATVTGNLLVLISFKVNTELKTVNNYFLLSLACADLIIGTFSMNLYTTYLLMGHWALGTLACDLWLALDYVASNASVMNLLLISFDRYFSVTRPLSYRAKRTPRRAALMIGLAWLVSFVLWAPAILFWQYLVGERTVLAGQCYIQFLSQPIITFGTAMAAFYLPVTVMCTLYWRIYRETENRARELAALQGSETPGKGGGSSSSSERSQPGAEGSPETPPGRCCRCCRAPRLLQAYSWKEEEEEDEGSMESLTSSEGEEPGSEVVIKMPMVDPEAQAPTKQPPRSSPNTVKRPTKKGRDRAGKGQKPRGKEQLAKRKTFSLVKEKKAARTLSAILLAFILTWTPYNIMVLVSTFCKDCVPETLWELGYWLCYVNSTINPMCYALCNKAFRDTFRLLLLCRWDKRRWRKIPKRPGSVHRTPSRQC
Format: cell-based
Details: relative to the potency of carbachol at its EC50
Entries annotated with measured huM1/A9L Potency relative to carbachol
Assay Endpoint: huM1/A9L Potency relative to carbachol

1) [2H]C1([2H])NC([2H])([2H])C2(c3nc(C)no3)CC12 (centres unmarked) ... 1.17
2) Cc1noc([C@@]23CNC[C@@H]2C3)n1 [Compound 106a] ... 1.72
3) [2H]C1([2H])NC[C@]2(c3nc(C)no3)C[C@H]12 [Compound 122b] ... 0.54
4) Cc1noc(C23CNCC2C3)n1 (racemic) [Compound 105] ... 0.78
5) [2H]C([2H])([2H])c1noc(C23CNC([2H])([2H])C2C3)n1 (centres unmarked) [Compound 136] ... 0.89
6) [2H]C([2H])([2H])c1noc(C23CNC([2H])([2H])C2C3)n1 (centres unmarked) [Compound 137] ... 1.26
7) [2H]C([2H])([2H])c1noc(C23CNC([2H])([2H])C2C3)n1 (centres unmarked) [Compound 135] ... 1.39
8) [2H]C([2H])([2H])c1noc(C23CNCC2C3)n1 (centres unmarked) ... 1.34
9) Cc1noc([C@]23CNC[C@H]2C3)n1 [Compound 106b] ... 0.51
10) Cc1noc(C23CNCC2C3)n1 (racemic) [Compound 121] ... 1.10
11) [2H]C1([2H])NC[C@@]2(c3nc(C)no3)C[C@@H]12 [Compound 122a] ... 1.09

From: patent US9403806B1
